# assayed-target: bovine pancreatic trypsin (bovine), P00760
# Sequence (P00760 24-246): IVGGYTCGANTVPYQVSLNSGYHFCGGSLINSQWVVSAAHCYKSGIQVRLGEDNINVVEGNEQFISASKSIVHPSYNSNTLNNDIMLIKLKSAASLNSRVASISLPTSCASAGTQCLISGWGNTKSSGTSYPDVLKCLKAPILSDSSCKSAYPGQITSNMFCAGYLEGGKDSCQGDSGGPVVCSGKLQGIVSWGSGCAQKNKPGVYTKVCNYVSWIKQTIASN
# assay-details: enzyme inhibition; residual trypsin activity fitted to tight-binding equation (Morrison); apparent Ki (Kiapp)
experimental-endpoint: Ki (nM)

>  <binder>
GVCPKILAKCRRDSDCPGACICRGNGYCG (modifications not checked) [MCoTI-LAKC]

>  <unit-text>
nM

>  <Ki>
0.2

$$$$

A. GVCPKILRKCRRDSDCPGACICRGNGYCG (modifications not checked) [MCoTI-LRKC]
B. GVCPRILKKCRRDSDCPGACICRGNGYCG (modifications not checked) [MCoTI-R]
// pick larger Ki from pair: A vs B Write the label of whichever entry you select. B
(B: 0.8 nM, A: 0.5 nM)
